- METHOD NOTES: Protein binding in human plasma by LC-MS/MS based equilibrium dialysis method
- Format: ADME, cell-free
- REPORTED CONDITIONS: read-out: PPB (converted)
PROPERTY NAME: fraction unbound
Numbers only.

q: Supply reported fraction unbound belonging to this compound: Cc1ncc(-c2ccc3nc(NC(=O)C4CC4)sc3c2)cc1NC(=O)OC1CCOCC1
a: 0.016

----------
- METHOD NOTES: Half life in Sprague-Dawley rat at 2 mg/kg, iv measured upto 24 hrs by LC-MS/MS analysis
- Assay type: ADME, organism-based
- REPORTED CONDITIONS: in vivo
PROPERTY NAME: half-life

q: Entry Cc1ncc(-c2ccc3nc(NC(=O)C4CC4)sc3c2)cc1NC(=O)OC1CCOCC1 needs its half-life filled in; supply it.
a: 60 min
